# System: HCV replicon in cell line ET (luc-ubi-neo/ET), Huh7 human hepatoma cells
# test.description: HCV subgenomic replicon assay (luciferase end point)
# Assay type: cell-based
# conditions.used: Hepatitis C virus, Huh-7, read-out: Antiviral activity: IC50 (μM)
*1 amine or outer side, *2 acyl side, *3 side chain or, on linkers, in order; H or OH if unused. Where a SMILES comes first, the peptide text is derived from it. [ ]: non-standard residue; d: D form. ξ: configuration not given here. MeBmt = C/C=C/C[C@@H](C)[C@@H](O)[C@H](NC)C(=O)O; X1 = CCN(CC)CC[C@H](C(=O)[*:2])N(C)[*:1]; NMeIle(3ξ) = CCC(C)[C@H](NC)C(=O)O; NMeL = CN[C@@H](CC(C)C)C(=O)O; NMeV = CN[C@H](C(=O)O)C(C)C; Abu = CC[C@H](N)C(=O)O
assay.readout: IC50

- C/C=C/C[C@@H](C)[C@@H](O)[C@H]1C(=O)N[C@@H](CC)C(=O)N(C)[C@H](CCN(CC)CC)C(=O)N(C)[C@@H](C(C)C)C(=O)N[C@@H](C(C)C)C(=O)N(C)[C@@H](CC(C)C)C(=O)N[C@@H](C)C(=O)N[C@H](C)C(=O)N(C)[C@@H](CC(C)C)C(=O)N(C)[C@@H](CC(C)C)C(=O)N(C)[C@@H](C(C)C)C(=O)N1C [Example 29] (cyclo(A[dA][NMeL][NMeL][NMeV][MeBmt][Abu][X1][NMeV]V[NMeL])): < 0.25 µM
- C/C=C/C[C@@H](C)[C@@H](O)[C@H]1C(=O)N[C@@H](CC)C(=O)N(C)[C@H](CCN(CC)CC)C(=O)N(C)[C@@H](C(C)CC)C(=O)N[C@@H](C(C)C)C(=O)N(C)[C@@H](CC(C)C)C(=O)N[C@@H](C)C(=O)N[C@H](C)C(=O)N(C)[C@@H](CC(C)C)C(=O)N(C)[C@@H](CC(C)C)C(=O)N(C)[C@@H](C(C)C)C(=O)N1C (stereo partly drawn) [Example 30] (cyclo(A[dA][NMeL][NMeL][NMeV][MeBmt][Abu][X1][NMeIle(3ξ)]V[NMeL])): < 0.25 µM
- C/C=C/C[C@@H](C)[C@@H](O)[C@H]1C(=O)N[C@@H](CC)C(=O)N(C)[C@H](CCN(CC)CC)C(=O)N(C)[C@@H](CC(C)(C)O)C(=O)N[C@@H](C(C)C)C(=O)N(C)[C@@H](CC(C)C)C(=O)N[C@@H](C)C(=O)N[C@H](C)C(=O)N(C)[C@@H](CC(C)C)C(=O)N(C)[C@@H](CC(C)C)C(=O)N(C)[C@@H](C(C)C)C(=O)N1C: < 0.25 µM

----------
# Tested on: HCV replicon in cell line ET (luc-ubi-neo/ET), Huh7 human hepatoma cells
# test.description: HCV subgenomic replicon assay (luciferase end point)
# Format: cell-based
# conditions.used: Hepatitis C virus, Huh-7, read-out: Antiviral activity: IC50 (μM)
*1 amine or outer side, *2 acyl side, *3 side chain or, on linkers, in order; H or OH if unused. Where a SMILES comes first, the peptide text is derived from it. [ ]: non-standard residue; d: D form. MeBmt = C/C=C/C[C@@H](C)[C@@H](O)[C@H](NC)C(=O)O; X2 = C=CCOC(C)(C)C[C@@H](C(=O)[*:2])N(C)[*:1]; X3 = CN(C)CCC[C@H](C(=O)[*:2])N(C)[*:1]; dNMeDab(Me2) = CN[C@H](CCN(C)C)C(=O)O; NMeL = CN[C@@H](CC(C)C)C(=O)O; NMeV = CN[C@H](C(=O)O)C(C)C; Abu = CC[C@H](N)C(=O)O
The following compounds are shown together with reported IC50 values.
assay.readout: IC50

* C/C=C/C[C@@H](C)[C@@H](O)[C@H]1C(=O)N[C@@H](CC)C(=O)N(C)[C@H](CCCN(C)C)C(=O)N(C)[C@@H](CC(C)(C)OC)C(=O)N[C@@H](C(C)C)C(=O)N(C)[C@@H](CC(C)C)C(=O)N[C@@H](C)C(=O)N[C@H](C)C(=O)N(C)[C@@H](CC(C)C)C(=O)N(C)[C@@H](CC(C)C)C(=O)N(C)[C@@H](C(C)C)C(=O)N1C | < 0.25 µM
* C/C=C/C[C@@H](C)[C@@H](O)[C@H]1C(=O)N[C@@H](CC)C(=O)N(C)[C@H](CCCN(C)C)C(=O)N(C)[C@@H](C(C)C)C(=O)N[C@@H](C(C)C)C(=O)N(C)[C@@H](CC(C)C)C(=O)N[C@@H](C)C(=O)N[C@H](C)C(=O)N(C)[C@@H](CC(C)C)C(=O)N(C)[C@@H](CC(C)C)C(=O)N(C)[C@@H](C(C)C)C(=O)N1C [Example 43] (cyclo(A[dA][NMeL][NMeL][NMeV][MeBmt][Abu][X3][NMeV]V[NMeL])) | < 0.25 µM
* C=CCOC(C)(C)C[C@H]1C(=O)N[C@@H](C(C)C)C(=O)N(C)[C@@H](CC(C)C)C(=O)N[C@@H](C)C(=O)N[C@H](C)C(=O)N(C)[C@@H](CC(C)C)C(=O)N(C)[C@@H](CC(C)C)C(=O)N(C)[C@@H](C(C)C)C(=O)N(C)[C@@H]([C@H](O)[C@H](C)C/C=C/C)C(=O)N[C@@H](CC)C(=O)N(C)[C@H](CCN(C)C)C(=O)N1C [Example 22] (cyclo(A[dA][NMeL][NMeL][NMeV][MeBmt][Abu][dNMeDab(Me2)][X2]V[NMeL])) | < 0.25 µM
* C/C=C/C[C@@H](C)[C@@H](O)[C@H]1C(=O)N[C@@H](CC)C(=O)N(C)[C@H](CCN(C)C)C(=O)N(C)[C@@H](CC(C)(C)O)C(=O)N[C@@H](C(C)C)C(=O)N(C)[C@@H](CC(C)C)C(=O)N[C@@H](C)C(=O)N[C@H](C)C(=O)N(C)[C@@H](CC(C)C)C(=O)N(C)[C@@H](CC(C)C)C(=O)N(C)[C@@H](C(C)C)C(=O)N1C | < 0.25 µM
* C/C=C/C[C@@H](C)[C@@H](O)[C@H]1C(=O)N[C@@H](CC)C(=O)N(C)[C@@H](CCN(CC)CC)C(=O)N(C)[C@@H](CC(C)(C)O)C(=O)N[C@@H](C(C)C)C(=O)N(C)[C@@H](CC(C)C)C(=O)N[C@@H](C)C(=O)N[C@H](C)C(=O)N(C)[C@@H](CC(C)C)C(=O)N(C)[C@@H](CC(C)C)C(=O)N(C)[C@@H](C(C)C)C(=O)N1C | < 5 µM
